tested on: NCI-H23; assay: NCI tumour cell line growth inhibition, 48 h
Activity calls are given as the source filed them. Cut-off read from the data, not from the text of the source: active = GI50 up to about 1.1 µM and inactive = higher.
Hello, when you answer, please use one of the following outcomes: active, inactive

Answered examples (10):
O=C1/C(=C\c2ccc(Cl)cc2Cl)Sc2scc(-c3cccc([N+](=O)[O-])c3)[n+]21
inactive
[O-][S+](Cc1ccccc1)c1ccccc1Cn1cccc1 (stereo not drawn)
inactive
COc1ccc2c(c1)CC1(O)COc3cc(OC)ccc3C1O2 (stereo not drawn)
inactive
COc1ccc(/C=C2\CCC(CCN(C)C)(C3=CCCC3)C2=O)cc1 (stereo not drawn)
inactive
CN(C)/C(=N/C(=O)Nc1ccccc1)SCc1ccccc1
inactive
O=c1c2ccccc2n2nnc3ccc(NCCCNCCNCCCNc4ccc5nnn6c7ccccc7c(=O)c4c56)c1c32
inactive
COC(NC(N)=O)C(=O)O (stereo not drawn)
inactive
Cc1ccc2c(c1)S(=O)(=O)c1ccc3ccccc3c1N2
inactive
C1=CC2=CC=CC3c4nc5ccc6ccccc6c5nc4C(=C1)C23 (stereo not drawn)
inactive
CCCCNC(=O)C1=C(C)NC(C)=C(C(=O)NCCCC)C1
inactive

// query How did this test come out for c1cc2c(cc1C1OCC3C(c4ccc5c(c4)OCO5)OCC13)OCO2 (stereo not drawn) ?
// result inactive

// query How did this test come out for CC(C)(C)OC(=O)c1cnc(Cl)cn1 ?
// result inactive

// query How did this test come out for O=[N+]([O-])c1ccc(Cl)cc1-n1nc(-c2ccccc2)cc1-c1ccccc1 ?
// result inactive

// query How did this test come out for O=C(O)[C@@H]1CCS(=O)(=O)N1 ?
// result inactive

// query How did this test come out for O=C(O)c1ccccc1C(=O)c1ccc2c(c1)Cc1ccccc1-2 ?
// result inactive

// query How did this test come out for CC(C)(C)C(=O)/C=C/c1cccc(Oc2ccccc2)c1 ?
// result inactive
